# procedure-summary: SK-MEL-5 parental cell viability loss, dose response, orthogonal assay for MITF inhibitor project, CellTiter-Glo, cherry-picked, set 3 (AID 493240)
# conditions: SK-MEL-5 viability, ATP luminescence (CellTiter-Glo), 24 h; series mostly up to 35 µM
About 270 (21%) of roughly 1,300 compounds were called active. The list is a sample of the results. Results with a measured potency or affinity are listed apart.

>  <compound>
Oc1cc(NCc2cccnc2)ccc1-c1nc2ccccc2o1

>  <outcome>
inactive

$$$$
>  <compound>
Cc1ccc([N+](=O)[O-])cc1N1C(=O)CS/C1=N\NC(=O)c1cccnc1

>  <outcome>
inactive

$$$$
>  <compound>
Cc1ccc2nc(Cc3ccc(N)cc3)oc2c1

>  <outcome>
inactive

$$$$
>  <compound>
Cc1ccc(NC(=O)c2ccc(OCC3CCCO3)cc2)c(C)c1 (centres undefined)

>  <outcome>
inactive

$$$$
>  <compound>
Fc1ccccc1-c1nc(-c2ccncc2)no1

>  <outcome>
inactive

$$$$
>  <compound>
Cc1ccc(NC(=O)c2cc(N3C(=O)C=CC3=O)ccc2N2CCOCC2)cc1Cl

>  <outcome>
inactive

$$$$
>  <compound>
CCN(CC)S(=O)(=O)c1ccc(N2CCCC2)c(NC(=O)c2ccc([N+](=O)[O-])o2)c1

>  <outcome>
inactive

$$$$
>  <compound>
CC(=O)N(c1nnc(-c2cccc(C)c2)s1)C1CCCC1

>  <outcome>
inactive

$$$$
>  <compound>
O=C(Nc1ccccc1N1CCOCC1)c1ccc([N+](=O)[O-])s1

>  <outcome>
inactive

$$$$
>  <compound>
CCOC(=O)COc1ccc2ccccc2c1/C=C/[N+](=O)[O-]

>  <outcome>
inactive

$$$$
>  <compound>
Cc1ccc(OCCCCN2CCCCC2)c(Br)c1

>  <outcome>
inactive

$$$$
>  <compound>
CCOC(=O)c1ccc(NC(=O)c2ccnn2C)cc1

>  <outcome>
inactive

$$$$
>  <compound>
O=C(Nc1ccc(-c2nc3ncccc3o2)cc1)c1ccc([N+](=O)[O-])o1

>  <outcome>
inactive

$$$$
>  <compound>
CCC(=O)NC(c1ccccc1OC)c1ccc2cccnc2c1O (centres undefined)

>  <outcome>
inactive

$$$$
>  <compound>
COc1ccc2nc(C)cc(SCC(=O)N/N=C/c3ccc(O)cc3O)c2c1

>  <outcome>
inactive

$$$$
>  <compound>
Clc1cccc(-c2nc(-c3ccccn3)no2)c1

>  <outcome>
inactive

$$$$
>  <compound>
CC(C)CC(=O)NC(c1cccs1)c1ccc2cccnc2c1O (centres undefined)

>  <outcome>
inactive

$$$$
>  <compound>
Cc1cccc(OCC(=O)Nc2cccc(O)c2)c1

>  <outcome>
inactive

$$$$
>  <compound>
Cc1ccc(-n2ncc3c(SCC(N)=O)ncnc32)cc1C

>  <outcome>
inactive

$$$$
>  <compound>
N#C/C(=C\C=C\c1ccccc1[N+](=O)[O-])C(=O)NCc1ccccc1

>  <outcome>
inactive

$$$$
>  <compound>
CCC[n+]1c(C)sc2c3c(ccc21)CCCC3

>  <outcome>
inactive

$$$$
>  <compound>
O=[N+]([O-])c1cc(C(F)(F)F)ccc1NCCc1ccccn1

>  <outcome>
inactive

$$$$
>  <compound>
O=C(/C=C/c1cccc([N+](=O)[O-])c1)n1cnc2ccccc21

>  <outcome>
inactive

$$$$
>  <compound>
CCOC(=O)c1ccc(NC(=O)CC2SCCNC2=O)cc1 (centres undefined)

>  <outcome>
inactive

$$$$

Data credit: PubChem BioAssay AID493240
